Assignment: determine reported growth for the given compounds.
test system: SW-620 colon; assay: NCI-60 one-dose screen, 48 h (100 = growth as untreated, 0 = no growth, -100 = all killed); details: 10 µM unless noted
This is part of a sample that, as a whole, favours compounds with a hit. Of some 83,000 tested, about 20% had one in any assay.
Dear colleague, please return just the value in %, with no unit written.

# query: growth of entry `CC[C@@]12CC(C(=O)OC)=C3Nc4cc5c(cc4[C@@]34CCN(C[C@H]3O[C@H]31)[C@@H]24)[C@@H]1[C@H](O5)[C@@H](O)[C@@]2(CC)CC(C(=O)OC)=C3Nc4cc(O)ccc4[C@@]34CCN1[C@@H]24`
-71.1

What do you get for `C[C@@H]1[C@H]2C[C@@H](C[C@H]1NCc1nc3ccccc3n1C1CCCCCC1)C2(C)C` ?
49.6

Consider next the compound `COc1c(B(O)O)cc(F)cc1-c1nc2ccc3[nH]ncc3c2c2c1COCC2` in the same way.
34.3

Now the compound `O=C(CSc1nnc(-c2ccc(-c3nc4ccccc4[nH]3)cc2)o1)Nc1ccc(Br)cc1`
-47

Same thing, different compound: `COc1ccccc1Nc1nnc(-c2c[nH]c3ccccc23)o1`
40.9

Then what about the compound CC1=C(C(=O)OC(C)C)C(c2ccc(O)cc2)NC(=O)N1 (stereo not drawn) ?
103

Request: `C/C(=N\Nc1ccc(S(N)(=O)=O)cc1)c1cnn(-c2cc(=O)[nH]c3ccc(Br)cc23)c1C`
75.7

Also `Cc1ccc(N=Nc2c(N)nn3c(-c4cc5ccccc5oc4=O)ccnc23)cc1` , if possible.
30.7

Now give it for `COc1cc(/C=C/C(=O)c2cnn(-c3cc(=O)[nH]c4ccccc34)c2C)cc(OC)c1OC` too.
24.4

For `COc1ccc2oc(=O)c(-c3csc(N/N=C(\C)c4cc(OC)c(OC)c(OC)c4)n3)cc2c1` then?
108

How about this compound: `COc1cncc(-c2ccc3ncnc(N4CCc5ccc(Cl)cc54)c3c2)c1`
60.7

One more compound: COc1ccc2c(c1)C(=O)N(C)C2C1c2c(cc3c(c2OC)OCO3)CCN1C (stereo not drawn)
23.9

Same again, this time with `COc1cccc(-c2ccc(/C=N/NC(=O)c3[nH]c4ccc(Br)cc4c3-c3ccccc3)s2)c1`
20.4

Now try `COc1ccc(C(=O)NNC(=O)CSc2nc3sc4c(c3c(=O)n2-c2ccc(Cl)cc2)CCCC4)cc1` .
88

Do the same for `Cc1nn(-c2ccccc2)c2nc(C)n(CC(=O)N/N=C/c3ccccc3O)c(=O)c12` please
18.9

# iterate: `COc1ccc(-c2nc3ccccc3n2CC(=O)N=Nc2c(O)[nH]c3ccc(OC)cc23)cc1`
48.6

Another compound: `CN(C)c1nc(NCCNS(=O)(=O)c2ccc(C(=O)/C=C/c3ccccc3)cc2)nc(N2CCOCC2)n1`
-11.3

Same read-out for `NC(=O)c1ccc(-c2ccc3ncnc(N4CCc5cc(F)c(Cl)cc54)c3c2)cn1` ?
94.2

* * *

Please go through the items and note down their growth.
test system: 786-0 renal; assay: NCI-60 one-dose screen, 48 h (100 = growth as untreated, 0 = no growth, -100 = all killed); conditions: 10 µM unless noted
The panel holds about 83,000 compounds, 20% with a hit somewhere; the sample as a whole holds those more often.
Please give a number only; it is taken to be in %.

Using the record for `COC(=O)c1cc(C(=O)C(Br)Br)n2c1ccc1c3ccccc3ccc12` , report its growth.
64.6

What about O=C1CCC(N2C(=O)c3cccc(NCCOCCOCCOCCC(=O)NCCCC(=O)NC(c4ccc5c(c4)OCO5)c4cc(Cl)c5cccnc5c4O)c3C2=O)C(=O)C1 (centres undefined) ?
70.8

Same for `N#C/C(=C/c1ccc([N+](=O)[O-])cc1)c1nnc(NC(=O)c2ccc(-n3c(=O)[nH]c4ccccc4c3=O)cc2)s1`
104

// same read-out, input: `COc1ccc2[nH]c(=O)c(CSc3ccccc3Nc3nccc(-c4ccc(Cl)cc4)n3)cc2c1`
43.4

Do the same for CCOc1ccccc1[C@H]1C(C(=O)c2ccc(Cl)cc2)C2(N[C@@H]1c1ccccc1)C(=O)Nc1ccc(Br)cc12 (some centres undefined) please
-76.5

Subsequent entry: Clc1ccc(CNc2nc(SCCN3CCOCC3)nc3c2cnn3CC(Cl)c2ccc(Br)cc2)cc1 (centres undefined)
39.6

And the next one, `N/C(=N\c1nc2ccc([N+](=O)[O-])cc2s1)NC(=O)Nc1ccccc1Cl` ?
-32

Please answer likewise for `N#C/C(=C/c1ccc(Cl)cc1)c1nnc(NC(=O)c2ccc(-n3c(=O)[nH]c4ccccc4c3=O)cc2)s1`
48.1

And O=C(c1ccc(O)cc1)C1[C@H](c2ccc(Cl)cc2)[C@@H](c2ccccc2)NC12C(=O)Nc1ccc(Br)cc12 (some centres undefined) ?
-52.1

How about `COc1ccc(N=Nc2c(N)nn3c(-c4ccc(F)cc4)ccnc23)cc1` ?
92.3

Next entry: `O=C(Cn1c(-c2ccccc2)nc2ccccc21)N=Nc1c(O)[nH]c2ccc(Cl)cc12`
-18.5

Lookup `CCCCCCCCCCCCCCCCCC(=O)Nc1ccc(OC)cc1`
102

And then `Cc1ccc2nc(COc3ccc(C(=O)NNC(=O)Nc4ccc(Cl)c(C(F)(F)F)c4)cc3)[nH]c2c1` , what is it?
50.1

Item: `Nc1nn2c(-c3cc4cc(Br)ccc4oc3=O)ccnc2c1N=Nc1ccc(Br)cc1`
13.8

Another compound: `COc1ccc(-c2cc(-c3ccccc3)c(C#N)c(=O)[nH]2)cc1S(N)(=O)=O`
94.7

Please answer likewise for `O=C(c1cc2cc(OCCCN3CCC3)ccc2[nH]1)N1C[C@@H](CCl)c2c1cc(OCc1ccccc1)c1ccccc21`
-86.1

One more compound: `N#Cc1cc(-c2ccnc(Nc3ccc(N4CCN(C5COC5)CC4)cc3)n2)ccc1N1CCCC1`
16.9

Queued: CN1C(=O)C(O)(CC(=O)c2cc3ccccc3oc2=O)c2ccccc21 (centres undefined)
105

Please give the result for `COc1cc(CNC(=O)C[C@H](C)CCC=C(C)C)ccc1OCc1cn(-c2cccc(C(F)(F)F)c2)nn1` too.
93

* * *

tested on: MOLT-4 leukemia; assay: NCI-60 one-dose screen, 48 h; conditions: 10 µM unless noted
Compounds without any hit were thinned out: in the full panel of roughly 83,000, 20% have a hit. The source made the active and inactive calls. The calls were made as follows: active = growth percent below 10; inactive = the rest.
Use one of these outcomes when replying: true (1) for active, false (0) for inactive

Which outcome was entered for the compound `CCCCCCCCc1cccc(CC(=O)Nc2ccc(C)cc2C(=O)O)c1` in this test?
false (0)

Another: `Cc1nn(-c2ccccc2)c2nc(C)n(C(=O)N/N=C/c3cccc([N+](=O)[O-])c3)c(=O)c12`
false (0)

And what about the compound `NS(=O)(=O)c1ccc(Nc2nc(N/N=C/c3cc(Br)c(O)c(Br)c3)nc(Nc3ccccc3)n2)cc1` ?
true (1)

* * *

test system: NCI-H522 lung; assay: NCI-60 one-dose screen, 48 h (100 = growth as untreated, 0 = no growth, -100 = all killed); conditions: 10 µM unless noted
About 83,000 compounds went through this panel and 20% of them were active in at least one assay; those are over-represented in the sample as a whole.
Could you please mark Yes for values of growth below 40% and No for values at or above it?

API: query returns whether the compound falls strictly under 40% in growth. Query: `COc1cc(-c2ccc3ncnc(N4CCc5ccc(Cl)cc54)c3c2)cnc1Cl`
Yes

Next compound up: `Cn1cc(-c2cc(N)n3nc(-c4c[nH]c5ccc(F)cc45)cc3n2)c2cccnc21`
Yes

Then what about the compound `FC(F)(F)c1cc2c(Cl)ncnc2n1CCN1CCCCC1` ?
Yes

Subsequent entry: `N#CCc1nnc(NC(=O)c2ccc(-n3c(=O)[nH]c4ccccc4c3=O)cc2)s1`
No

Param item: `Nc1nc2cc(-c3ccc4ncnc(NCc5ccccc5)c4c3)ccc2o1`
Yes

* * *

test system: RXF 393 renal; assay: NCI-60 one-dose screen, 48 h (100 = growth as untreated, 0 = no growth, -100 = all killed); conditions: 10 µM unless noted
This is part of a sample that, as a whole, favours compounds with a hit. Of some 83,000 tested, about 20% had one in any assay. Active and inactive are the calls of the source. How the source made its calls: active means growth percent below 10; inactive means the rest.
attribute_measured: growth

If you can, please state the reported growth value of N#CC1=C(c2cccs2)Nc2c(c(-c3ccccc3)nn2-c2ccccc2)C12C(=O)Nc1ccccc12 (stereo not drawn) .
-13.4% (active)

Try this compound too: `O=C(N/N=C/c1ccsc1)c1[nH]c2ccc(Br)cc2c1-c1ccccc1`
-47.5% (active)

Then what about the compound `C[C@@H]1[C@H]2C[C@@H](C[C@H]1NCc1nc3ccccc3n1C1CCCCCC1)C2(C)C` ?
19% (inactive)

Cool, now CCOC(=O)/C(F)=C/C1CC1C(c1ccccc1)c1ccccc1 (stereo not drawn)
77.2% (inactive)

Queued: `COc1ccc(-c2cc(C)nc3[nH]c(=O)sc23)cc1`
57% (inactive)

Please answer likewise for `CCCCCCCCc1ccc(C(=O)Nc2ccc(C)c(OP(=O)(O)O)c2)cc1`
113% (inactive)

Item: `COc1ccc(-c2nc3ccccc3n2CC(=O)N=Nc2c(O)[nH]c3ccc(OC)cc23)cc1`
10.6% (inactive)

Now try `Nc1cc2ccccc2c(=O)n1NC(=O)c1ccccc1` .
104% (inactive)

# repeat for `Cc1[nH]nc2ccc3nc(-c4cn[nH]c4C(F)(F)F)c4c(c3c12)CCCC4`
-79.6% (active)

Now consider `N#Cc1ccc(C(=O)CSc2nc3c(c(Nc4ccc(S(N)(=O)=O)cc4)n2)CCC3)cc1` .
-18.1% (active)

Query `C=CC(=O)Nc1ccc(C(=O)/C=C/c2ccc(N(C)C)cc2)c(O)c1` next
-63.8% (active)

Entry to check: `COc1cc(CNC(=O)C[C@H](C)CCC=C(C)C)ccc1OCc1cn(-c2ccc(Br)cc2)nn1`
61.8% (inactive)

Can you handle `COc1ccc(-c2nnc3c(/C=C/c4ccc(Br)cc4)nc4ccccc4n23)cc1` next?
-2.19% (active)

Again, but for `CCCCNC(=S)Nc1ccc(OCc2nc3ccc(Cl)cc3[nH]2)cc1`
-1.67% (active)

Try this compound next: `FC(F)(F)c1cc2c(Cl)ncnc2n1CCC1CCOCC1`
57.8% (inactive)

Same read-out for `COc1ccc(NC2=C(I)C(=O)C(C)=C(C)C2=O)cc1` ?
58.6% (inactive)

Next compound: Cc1cc(C)c2[nH]c(=O)c(C(c3nnnn3Cc3ccc4c(c3)OCO4)N3CCN(C)CC3)cc2c1 (stereo not drawn)
114% (inactive)

And what about the compound `Cc1ccc(Cl)cc1NC(=O)Nc1nc2ccc([N+](=O)[O-])cc2s1` ?
-22.7% (active)

Ok, now N#CC1=C(c2ccco2)Nc2c(c(-c3ccccc3)nn2-c2ccccc2)C12C(=O)Nc1ccc(Cl)cc12 (stereo not drawn)
57.9% (inactive)

Next entry: `O=C(NC(=S)N1CCN(c2ncnc3c2cnn3-c2ccccc2)CC1)c1ccc(F)cc1`
77% (inactive)

What do you have for CN(C(=O)CN1C(=O)/C(=C/c2ccco2)SC1=S)C1CCS(=O)(=O)C1 (stereo not drawn) ?
108% (inactive)

Moving on to `NS(=O)(=O)c1ccc(Nc2nc(SCC(=O)c3ccc(F)cc3)nc3ccccc23)cc1`
63.5% (inactive)

What about CN(C)c1nc(NCCNS(=O)(=O)c2ccc(C3=Nc4c(N)nc(N)nc4NC(c4ccc(Cl)cc4)C3)cc2)nc(N2CCOCC2)n1 (stereo not drawn) ?
2.28% (active)

Now this one: `O=C1c2cccc3c(N4CCN(c5ccccc5)CC4)ccc(c23)C(=O)N1c1cccc(-c2nn(-c3ccccc3)cc2-c2nc3ccccc3s2)c1`
106% (inactive)

Similarly, `COc1ccc(N=Nc2c(N)nn3c(N)c(C#N)c(-c4ccc(F)cc4)nc23)cc1` ?
35.1% (inactive)

And what about the compound `S=C(Nc1ccc(OCc2nc3ccc(Cl)cc3[nH]2)cc1)NC1CCCCC1` ?
-52.3% (active)

Next entry: `Nc1nn2c(-c3cc4cc(Br)ccc4oc3=O)ccnc2c1N=Nc1ccccc1`
-53% (active)

Let us now turn to `Clc1ccc(-c2nc3ccc(-c4nnc(SCc5ccccc5)o4)cc3[nH]2)cc1`
-4.87% (active)

Also check `CC(C)(C)c1cc(-c2cc(-c3ccccc3)[nH]c(=O)c2C#N)cc(C(C)(C)C)c1`
-2.55% (active)

Try `Nc1nn2c(-c3cc4cc(Br)ccc4oc3=O)ccnc2c1N=Nc1ccc(S(N)(=O)=O)cc1` next.
87.1% (inactive)

Also `O=C(Nc1ccc(F)cc1)Nc1nc2ccc([N+](=O)[O-])cc2s1` , if possible.
-14.9% (active)

Now give it for N#CC1=C(c2ccco2)Nc2c(c(-c3ccccc3)nn2-c2ccccc2)C12C(=O)Nc1ccc(Br)cc12 (stereo not drawn) too.
70.2% (inactive)

Request: O=C1CCC(N2C(=O)c3cccc(NCCCCCC(=O)N4CCN(c5ccc6nc7c(nc6c5C(F)(F)F)C(=O)c5ncccc5C7=O)CC4)c3C2=O)C(=O)N1 (stereo not drawn)
-72.1% (active)

Lookup `C[C@H]1[C@@H](CC(=O)N[C@@H](Cc2coc3ccccc23)B(O)O)O[C@@H]2OC3(C)CC[C@H]4[C@H](C)CC[C@@H]1[C@@]24O3`
-59% (active)

Cool, now `O=Cc1cncc(-c2ccc3ncnc(N4CCc5cc(F)c(Cl)cc54)c3c2)c1`
-7.23% (active)

Next up: CCCCNc1ccc2c3c(cccc13)C(=O)N(NCC(O)COc1ccc3c(C)cc(=O)oc3c1)C2=O (stereo not drawn)
91.6% (inactive)

Next entry: `COc1cc(NC(=O)C(C)C)ccc1C(=O)NC(=S)Nc1ccc(S(N)(=O)=O)cc1`
88.7% (inactive)

Try this compound too: `COc1cc(NC(=O)CSc2nnc(-c3ccc(-c4nc5ccc(Cl)cc5[nH]4)cc3)o2)cc(OC)c1OC`
25.8% (inactive)
